Record form. Attribute: Dmax. Fill in for each entry.
Target entity: Androgen Receptor (Homo sapiens, UniProt P10275)
Construct: endogenous in cells; host or cells: VCaP cells
Sequence (P10275 1-920): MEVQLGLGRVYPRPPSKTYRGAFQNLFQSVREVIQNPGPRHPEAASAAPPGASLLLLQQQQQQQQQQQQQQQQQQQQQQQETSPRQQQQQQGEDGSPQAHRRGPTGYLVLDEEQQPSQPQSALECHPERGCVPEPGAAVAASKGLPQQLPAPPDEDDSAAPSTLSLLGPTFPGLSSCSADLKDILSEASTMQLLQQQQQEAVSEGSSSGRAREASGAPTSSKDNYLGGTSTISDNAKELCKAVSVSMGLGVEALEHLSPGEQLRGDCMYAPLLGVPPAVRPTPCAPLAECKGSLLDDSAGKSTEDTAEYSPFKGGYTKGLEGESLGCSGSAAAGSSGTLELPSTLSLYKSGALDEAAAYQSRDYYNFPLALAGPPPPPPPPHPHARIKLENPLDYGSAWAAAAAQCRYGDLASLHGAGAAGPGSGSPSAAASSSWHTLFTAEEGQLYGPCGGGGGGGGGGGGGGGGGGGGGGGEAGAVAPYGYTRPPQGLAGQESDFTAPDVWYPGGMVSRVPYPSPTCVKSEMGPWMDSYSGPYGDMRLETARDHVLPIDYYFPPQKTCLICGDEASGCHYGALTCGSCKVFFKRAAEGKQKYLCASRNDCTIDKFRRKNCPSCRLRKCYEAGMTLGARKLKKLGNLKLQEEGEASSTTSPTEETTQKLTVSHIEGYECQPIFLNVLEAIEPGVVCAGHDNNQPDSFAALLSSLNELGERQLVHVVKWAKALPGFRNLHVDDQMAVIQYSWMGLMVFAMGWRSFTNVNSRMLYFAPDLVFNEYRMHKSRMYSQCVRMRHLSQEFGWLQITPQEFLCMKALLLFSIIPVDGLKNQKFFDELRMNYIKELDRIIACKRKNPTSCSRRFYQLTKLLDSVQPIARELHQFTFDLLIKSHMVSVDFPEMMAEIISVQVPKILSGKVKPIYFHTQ
Method: Androgen Receptor ELISA assay (PathScan AR ELISA) in VCaP cells: AR degradation, Dmax and DC50
Type: cell-based
Run conditions: VCaP, VCaP cells; Table 36; read-out: VCaP Dmax (%)

### Prompt What does the data say about its Dmax? Entry: Cc1ncsc1-c1ccc([C@H](C)NC(=O)[C@@H]2C[C@@H](O)CN2C(=O)[C@H](C(C)C)n2cc(-c3ccnc(N4CC[C@@H](Nc5ccc(C(=O)N[C@H]6C(C)(C)[C@H](Oc7ccc(C#N)c(Cl)c7)C6(C)C)cc5)C4)c3)cn2)cc1
### Response 26 to 50%

### Prompt Would you kindly repeat that for Cc1ncsc1-c1ccc([C@H](C)NC(=O)C2C[C@@H](O)CN2C(=O)C(NC(=O)CN2CCN(CCCCc3ccc(C(=O)N[C@H]4C(C)(C)[C@H](Oc5ccc(C#N)c(Cl)c5)C4(C)C)cc3)CC2)C(C)(C)C)cc1 (stereo partly shown) ?
### Response > 71%

### Prompt Param item: Cc1ncsc1-c1ccc([C@H](C)NC(=O)[C@@H]2C[C@@H](O)CN2C(=O)[C@@H](NC(=O)CN2CC(N3CCN(c4ccc(C(=O)N[C@H]5C(C)(C)[C@H](Oc6ccc(C#N)c(Cl)c6)C5(C)C)cn4)CC3)C2)C(C)(C)C)cc1
### Response 51 to 70%

### Prompt Same again, this time with C[C@H](NC(=O)C1C[C@@H](O)CN1C(=O)[C@@H](NC(=O)COCCCCCc1ccc(C(=O)N[C@H]2C(C)(C)[C@H](Oc3ccc(C#N)c(Cl)c3)C2(C)C)cc1)C(C)(C)C)c1ccc(Cl)cc1 (stereo partly shown)
### Response 51 to 70%
